# System: synthesis of LTB4 in human whole blood
# procedure details: human whole blood (HWB) assay, LTB4 production inhibition after calcimycin stimulation
# Type: cell-based
# setup conditions: heparinized human whole blood, calcimycin 20 μM, plasma LTB4 by HTRF
pIC50: −log10 of the molar value.
If the reported pIC50 equals or exceeds 7, assign label 1. If not, assign label 0.

>>> label("CC(=O)N1C[C@@H]2CC[C@H]1CN2Cc1ccc([C@H]2COc3cccnc3O2)cc1 [Example 264]")
"label 1"
>>> label("O=C(CO)N1C[C@@H]2CC[C@H]1CN2Cc1ccc([C@H]2COc3cccnc3O2)cc1 [Example 281]")
"label 1"
>>> label("CS(=O)(=O)N1CCC(NCc2ccc([C@H]3COc4ccccc4O3)cc2)CC1 [Example 174]")
"label 0"

* * *

# Test system: synthesis of LTB4 in human whole blood
# procedure details: human whole blood (HWB) assay, LTB4 production inhibition after calcimycin stimulation
# Format: cell-based
# setup conditions: heparinized human whole blood, calcimycin 20 μM, plasma LTB4 by HTRF
parameter: IC50 (nM)

>>> result_number("COCC(=O)N1CCCN(Cc2ccc([C@H]3COc4cccnc4O3)cc2)CC1")
270
>>> result_number("O=C(NC[C@@H]1CCCO1)C1CCN(Cc2ccc([C@H]3COc4cccnc4O3)cc2)CC1")
55
>>> result_number("OC1CCN(Cc2ccc([C@H]3COc4cccnc4O3)cc2)CC1")
36
>>> result_number("O=C(O)C1CCN(Cc2ccc([C@H]3COc4ccccc4O3)cc2)CC1")
83
>>> result_number("CC(C)(O)CNC(=O)C1CCN(Cc2ccc([C@H]3COc4cccnc4O3)cc2)CC1")
76
>>> result_number("CC(=O)N1CCC(N(C)Cc2ccc([C@H]3COc4ccccc4O3)cc2)CC1")
155
>>> result_number("CN(Cc1ccc([C@H]2COc3cccnc3O2)cc1)C1CCS(=O)(=O)C1 (stereo partly drawn)")
230
>>> result_number("CS(=O)(=O)NC[C@@H]1[C@H]2CN(Cc3ccc([C@H]4COc5cccnc5O4)cc3)C[C@@H]12")
130
>>> result_number("CN(Cc1ccc([C@H]2COc3ccccc3O2)cc1)C1CCCCC1")
346
>>> result_number("O=C(O)C1CCCN(Cc2ccc([C@H]3COc4ccccc4O3)cc2)CC1 (stereo partly drawn)")
98
>>> result_number("NC(=O)NC1CCN(Cc2ccc([C@H]3COc4cccnc4O3)cc2)CC1")
177
>>> result_number("O=C1NCCCC12CCN(Cc1ccc([C@H]3COc4ccccc4O3)cc1)CC2")
310
>>> result_number("[O-][S+]1CCN(Cc2ccc([C@H]3COc4cccnc4O3)cc2)CC1")
120
>>> result_number("O=S1(=O)CCCN(Cc2ccc([C@H]3COc4cccnc4O3)cc2)CC1")
170
>>> result_number("NC(=O)N[C@H]1C[C@H]2CC[C@@H](C1)N2Cc1ccc([C@H]2COc3cccnc3O2)cc1")
790
>>> result_number("CC(=O)N1C[C@@H]2C[C@H]1CN2Cc1ccc([C@H]2COc3cccnc3O2)cc1")
24
>>> result_number("O=C1OC[C@H]2CN(Cc3ccc([C@H]4COc5cccnc5O4)cc3)CCN12")
200
>>> result_number("CS(=O)(=O)NC1CCN(Cc2ccc([C@H]3COc4cccnc4O3)cc2)CC1")
26
>>> result_number("O=C(O)CCCC1CCN(Cc2ccc(C3COc4ccccc4O3)cc2)CC1 (racemic)")
308
>>> result_number("NC(=O)c1nnc2n1CCN(Cc1ccc([C@H]3COc4cccnc4O3)cc1)C2")
110
>>> result_number("OC1(c2ccccc2)CCN(Cc2ccc([C@H]3COc4cccnc4O3)cc2)CC1")
36
